Provenance of the data: patent US20090191187A1

Biological target: T1, recombinant soluble human type 1 IL-1 receptor (extracellular domain, glycosylated) (human, UniProt P14778 21-333, N-glycosylated (from SF9 insect cells); biotinylated in the ELISA of Examples 2 and 4c)
T1 construct: also called hIL-1R; rshIL-1R
T1 sequence: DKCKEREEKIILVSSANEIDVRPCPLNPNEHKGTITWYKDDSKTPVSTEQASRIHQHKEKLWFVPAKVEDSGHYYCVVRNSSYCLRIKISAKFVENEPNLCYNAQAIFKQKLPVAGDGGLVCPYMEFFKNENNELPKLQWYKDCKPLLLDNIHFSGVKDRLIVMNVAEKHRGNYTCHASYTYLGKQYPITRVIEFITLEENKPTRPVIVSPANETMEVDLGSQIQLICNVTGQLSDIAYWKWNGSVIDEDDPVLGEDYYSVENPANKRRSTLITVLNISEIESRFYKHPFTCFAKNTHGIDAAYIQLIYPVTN
Experiment: ELISA on biotinylated human IL-1R on streptavidin plates
property measured: ELISA (absorbance at 370 nm in relation to 2D8), 2nd experiment

Some binders with recorded ELISA (absorbance at 370 nm in relation to 2D8), 2nd experiment:
binder	experimental value
DEI1/8 (antibody, V domains shown) VH: QLQLQESGPGLVKPSQTLSLTCTVSGLSLTSNSITWVRQAPGQGLEWMGMIWSNGDTDYNSAFTSRFTISRDNSKNTLYLQMNSLKTEDTAVYYCARYNYYFDYWGQGTLVTVSS VL: DIVLTQSPATLSLSPGERATLSCKASQNVDNRGVSYVHWYQQKPGQAPKLLIYKGSNLAFGVPSRFSGSGSGTDFTLTISSLQPEDFATYFCQQSKGHPDTFGAGTKLELK	2.2 relative to 2D8
DEI2/4 (antibody, V domains shown, also called combination of HURDIVHv2 and HURDIVKv4) VH: QLQLQESGPGLVKPSQTLSLTCTVSGLSLTSNSITWVRQAPGQGLEWMGMIWSNGDTDYSTSLKSRLTISKDTSKSQVVLTMTNMDPVDTATYYCARYNYYFDYWGQGTLVTVSS VL: DIVLTQSPATLSLSPGERATLSCKASQNVDNRGVSYVHWYQQKPGQAPKLLIYKGSNLAFGVPARFSGSGSGTDFTLTISSLQPEDFATYYCQQSKGHPDTFGAGTKLELK	1.8 relative to 2D8

We now examine a further binder.
Endpoint output: ELISA (absorbance at 370 nm in relation to 2D8), 2nd experiment of HUM2/2 (antibody, V domains shown, Humanized variant of 2D8) VH: QVQLQESGPGLVKPSETLSLTCTVSELSLTSNSITWIRQPPGKGLEWIGMIWSNGDTDYNSAFTSRVTISRDTSKNQFSLKLSSVTAADTAVYYCARYNYYFDYWGQGTLVTVSS VL: EIVLTQSPATLSLSPGERATLSCKASQNVDNRGVSYVHWYQQKPGQAPRLLIYKGSNLAFGVPARFSGSGSRTDFTLTISSLEPEDFATYYCQQSKGHPDTFGQGTKVEIK . Value?
1.6 relative to 2D8
